Listed below: TGI values for each entry.
System: SK-OV-3 ovarian
assayText: NCI tumour cell line growth inhibition, 48 h
valueKind: TGI

O=C1CCCC/C1=C(\Br)I | 49.2 µM
CCOC(=O)C(=Cc1ccccc1Cl)C(=O)OCC | > 10 µM
O=S(=O)(Nc1ccc(Cl)c(F)c1)c1ccc(-c2cnc(C3CC3)o2)cc1 | 18.3 µM
COc1cccc(/C=C2\COc3ccc(O)c(O)c3C2=O)c1 | 12.7 µM
CC[C@H](C)[C@H]1NC(=O)[C@@H](NC(=O)[C@@H](CC(C)C)N(C)C(=O)C2CCCN2C(=O)[C@H](C)O)[C@@H](C)OC(=O)[C@@H]2Cc3ccccc3CN2C(=O)[C@@H]2CCCN2C(=O)[C@H](CC(C)C)NC(=O)[C@@H](C)C(=O)[C@H](C(C)C)OC(=O)C[C@@H]1O (stereo partly specified) | > 42 µM
NC(=S)Nc1[nH]c(=S)nc2[nH]ccc12 | > 100 µM
Fc1cccc(F)c1C1SCc2nc3cc4ccccc4cc3n21 (stereo unspecified) | > 100 µM
COc1cc(COC(=O)N2CSCC2C(=O)O)c([N+](=O)[O-])cc1OC (stereo unspecified) | > 100 µM
O=c1[nH]ccc2c1ccn2C1CC(O)C(CO)O1 (stereo unspecified) | > 100 µM
CC1(C)COP(=S)(c2ccccn2)O[C@@H]1c1ccccc1 (stereo partly specified) | > 100 µM
C[C@@H](c1ccccc1)C(CC#N)[C@H]1CCC[C@]1(O)C#Cc1ccc2c(c1)OCO2 (stereo partly specified) | 34.6 µM
Cn1cc/c(=N\N=c2/ccn(C)c3ccccc23)c2ccccc21 | 31 µM
CN(C)CCCN1N=Nc2cccc3cccc1c23 | > 100 µM
Nc1ncnc2c1ccn2COC(CO)CO | > 100 µM
Cc1noc(C)c1-n1nc2ccc3nonc3c2n1 | > 73.4 µM
O=[N+]([O-])c1cccc2nc3ccccc3c(NCCN(CCO)CCO)c12 | 0.177 µM
CC(=O)OC(C[C@H](C)[C@@H]1CC[C@]2(C)C3=CCC4C(C)(C)C(=O)CC[C@]4(C)C3CCC12C)C1OC1(C)C (stereo partly specified) | 25.7 µM
O=C1CCC/C=C\C[C@H]2C=CC(=O)/C2=C/C[C@H](CCc2cccc(C(F)(F)F)c2)O1 | 7.75 µM
C=CCN(N=O)C(=O)NCCCC(NC(C)=O)C(=O)NCc1ccccc1 (stereo unspecified) | > 100 µM
O=c1oc2c3ccc4ccccc4c3n(CCCN3CCCCC3)c2c2ccccc12 | > 100 µM
C=CCNC(=S)/N=C\C(C(=O)OCC)=C(/O)C(=O)OCC | > 100 µM
